- PROTOCOL_SUMMARY: binders of probe aFGF2 on microarray, primary screen, stem cell growth factor project, biochemical, small-molecule microarray, fluorescence 635/667 (AID 1067);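 further: measures binding of biotinylated aFGF2 protein to printed compounds on slides; z-score merges feature fluorescence and signal-to-noise across triplicate slides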
- ASSAY_SETUP: higher = more signal
composite z-score values for the compounds below.

{"COMPOUND": "COCCOC(=O)N1C(=O)[C@@]2(c3cc(C#CCNC(N)=O)ccc31)[C@H](C(=O)N1CCN(c3ncccn3)CC1)[C@H]1C(=O)O[C@H](c3ccccc3)[C@H](c3ccccc3)N1[C@@H]2c1ccc(OCCO)cc1", "composite z-score": 0.0465}
{"COMPOUND": "CCOC(=O)C1=CC[C@@H](c2ccccc2)N(S(=O)(=O)c2ccc(C)cc2)[C@H]1c1ccccc1C", "composite z-score": -0.0895}
{"COMPOUND": "O=C1[C@@]23C=C(Br)[C@H](C[C@@H]2CCOC3)[C@@]12CO2", "composite z-score": -0.103}
{"COMPOUND": "CCN(CC)c1ccc(N2CC=CC34O[C@@H]5C=CCCOC(=O)C5[C@H]3C(=O)N(CCCCCCO)[C@@H]4C2=O)cc1 (stereo partly drawn)", "composite z-score": -0.16}
{"COMPOUND": "CC(C)NC(=O)[C@@]1(C)c2ccccc2C(=O)N(Cc2cc(C(F)(F)F)cc(C(F)(F)F)c2)[C@H]1c1ccc(CO)cc1", "composite z-score": -0.128}
{"COMPOUND": "CC(C)c1ccc(NN2C(C(O)c3ccc(B(O)O)cc3)C=CC3C(=O)N(c4ccccc4)C(=O)C32)cc1 (stereo not drawn)", "composite z-score": 0.185}
{"COMPOUND": "C=C[C@H](CO[Si](CC)(CC)CC)N(Cc1ccc(OC(C)=O)c(OC)c1)S(=O)(=O)c1ccc(Br)cc1", "composite z-score": 0.365}
{"COMPOUND": "C=C(/C(=C/C[C@H](OC(C)=O)c1ccccc1OCCO)c1cnc2ccccc2c1)C(C)C", "composite z-score": -0.0419}
